# PROTOCOL_NOTES: Diclofenac plasma pharmacokinetics in chickens after IV dosing (HPLC, non-compartmental)
# EXPERIMENTAL_PARAMETERS: in vivo, iv, MRT, test group (fluconazole + diclofenac IV), birds alive; GM
ENDPOINT_LABEL: MRT

>>> observed_result("O=C(O)Cc1ccccc1Nc1c(Cl)cccc1Cl [diclofenac, diclofenac sodium]")
"1.34 h"

----------
# PROTOCOL_NOTES: Diclofenac plasma pharmacokinetics in chickens after IV dosing (HPLC, non-compartmental)
# EXPERIMENTAL_PARAMETERS: in vivo, iv, MRT, control group (diclofenac IV alone), birds dead; GM
ENDPOINT_LABEL: MRT

>>> observed_result("O=C(O)Cc1ccccc1Nc1c(Cl)cccc1Cl [diclofenac, diclofenac sodium]")
"3.14 h"

----------
# PROTOCOL_NOTES: Diclofenac plasma pharmacokinetics in chickens after IV dosing (HPLC, non-compartmental)
# EXPERIMENTAL_PARAMETERS: in vivo, iv, Vz, control group (diclofenac IV alone), birds alive; GM
ENDPOINT_LABEL: Vd (L/kg)

>>> observed_result("O=C(O)Cc1ccccc1Nc1c(Cl)cccc1Cl [diclofenac, diclofenac sodium]")
1.98

----------
# PROTOCOL_NOTES: Diclofenac plasma pharmacokinetics in chickens after IV dosing (HPLC, non-compartmental)
# EXPERIMENTAL_PARAMETERS: in vivo, iv, AUCinf, test group (fluconazole + diclofenac IV), birds alive; GM, dose corrected to 1 mg/kg
# Experimental: Birds still alive after 15 days were terminated by sedation and carbon dioxide asphyxiation. […] Samples were analysed at the University of Pretoria, Veterinary, Paraclinical Department, toxicology and pharmacology laboratory. […] Concentration-time data generated following HPLC analysis was dose equalised to 1 mg/kg and evaluated by non-compartmental modelling (Kinetica 5.1, Thermo Scientific). […] The half-life of elimination (T1/2) was calculated as: • T1/2=Ln 2/β. […]
ENDPOINT_LABEL: AUC(0-inf) (ng·h/mL)

>>> observed_result("O=C(O)Cc1ccccc1Nc1c(Cl)cccc1Cl [diclofenac, diclofenac sodium]")
550

----------
# PROTOCOL_NOTES: Diclofenac plasma pharmacokinetics in chickens after IV dosing (HPLC, non-compartmental)
# EXPERIMENTAL_PARAMETERS: in vivo, iv, Vz, control group (diclofenac IV alone), birds dead; GM
ENDPOINT_LABEL: Vd (L/kg)

>>> observed_result("O=C(O)Cc1ccccc1Nc1c(Cl)cccc1Cl [diclofenac, diclofenac sodium]")
3.88

----------
# PROTOCOL_NOTES: Diclofenac plasma pharmacokinetics in chickens after IV dosing (HPLC, non-compartmental)
# EXPERIMENTAL_PARAMETERS: in vivo, iv, Vss, control group (diclofenac IV alone), birds alive; GM
ENDPOINT_LABEL: Vd (L/kg)

>>> observed_result("O=C(O)Cc1ccccc1Nc1c(Cl)cccc1Cl [diclofenac, diclofenac sodium]")
2.04

----------
# PROTOCOL_NOTES: Diclofenac plasma pharmacokinetics in chickens after IV dosing (HPLC, non-compartmental)
# EXPERIMENTAL_PARAMETERS: in vivo, iv, Vss, test group (fluconazole + diclofenac IV), birds alive; GM
ENDPOINT_LABEL: Vd (L/kg)

>>> observed_result("O=C(O)Cc1ccccc1Nc1c(Cl)cccc1Cl [diclofenac, diclofenac sodium]")
2.44

----------
# PROTOCOL_NOTES: Diclofenac plasma pharmacokinetics in chickens after IV dosing (HPLC, non-compartmental)
# EXPERIMENTAL_PARAMETERS: in vivo, iv, Cmax, geometric mean, test group (CYP inhibitor), all birds
ENDPOINT_LABEL: Cmax (ng/mL)

>>> observed_result("O=C(O)Cc1ccccc1Nc1c(Cl)cccc1Cl [diclofenac, diclofenac sodium]")
610
